- TARGET_OF_ASSAY: acetylcholine receptor
- PROTOCOL_DETAILS: SPR, receptor immobilised on chip, peptide at 10 uM
QUANTITY_MEASURED: Binding affinity (RU)
Express your answer in RU, writing the number without its unit.

RCEIRK [6mer-2-981]	32
KEMFRK [6mer-2-971]	29
RFDHKK [6mer-2-924]	28

Exercise: Kindly indicate its recorded Binding affinity (RU). Item: RYWDRK [6mer-2-901]
Key: 34
